Reported MIC values are given for each entry in this list.
# Test system: Staphylococcus epidermidis
# Assay Notes: Antibacterial activity against Staphylococcus epidermidis CCM 7221 assessed as inhibition of bacterial growth incubated for 24 hrs by microdilution assay
# Format: functional

# Compound, MIC / µg/mL
data = [
    ("CCCCCCCOP(=O)(CCN(CCCN)CCCN)OCCCCOP(=O)(CCN(CCCN)CCCN)OCCCCCCC.Cl.Cl.Cl.Cl.Cl.Cl (centres undefined)", 2),
    ("Cl.Cl.Cl.Cl.Cl.Cl.N=C(N)NCCCN(CCCNC(=N)N)CCP(=O)(OCCCCCOP(=O)(CCN(CCCNC(=N)N)CCCNC(=N)N)OCC12CC3CC(CC(C3)C1)C2)OCC12CC3CC(CC(C3)C1)C2 (centres undefined)", 0.5),
    ("CCCCC/C=C\\CCCOP(=O)(CCN(CCCN)CCCN)OCCCCCCOP(=O)(CCN(CCCN)CCCN)OCCC/C=C\\CCCCC.Cl.Cl.Cl.Cl.Cl.Cl (centres undefined)", 0.5),
    ("CCCCCCCCOP(=O)(CCN(CCCN)CCCN)OCCCCCCCCCCCCOP(=O)(CCN(CCCN)CCCN)OCCCCCCCC.Cl.Cl.Cl.Cl.Cl.Cl (centres undefined)", 0.5),
    ("CCCCCCOP(=O)(CCN(CCCN)CCCN)OCCCCCCCCCCOP(=O)(CCN(CCCN)CCCN)OCCCCCC.Cl.Cl.Cl.Cl.Cl.Cl (centres undefined)", 0.5),
    ("CC(C)COP(=O)(CCN(CCCN)CCCN)OCCCCCCCCOP(=O)(CCN(CCCN)CCCN)OCC(C)C.Cl.Cl.Cl.Cl.Cl.Cl (centres undefined)", 32),
    ("CCCCCOP(=O)(CCN(CCN)CCN)OCCCCCCCCOP(=O)(CCN(CCN)CCN)OCCCCC.Cl.Cl.Cl.Cl.Cl.Cl (centres undefined)", 2),
    ("CCCCCCCCCCOP(=O)(CCN(CCCN)CCCN)OCCCCCCCCCCOP(=O)(CCN(CCCN)CCCN)OCCCCCCCCCC.Cl.Cl.Cl.Cl.Cl.Cl (centres undefined)", 1),
    ("CCCCCCCCOP(=O)(CCN(CCCN)CCCN)OCCCCCCOP(=O)(CCN(CCCN)CCCN)OCCCCCCCC.Cl.Cl.Cl.Cl.Cl.Cl (centres undefined)", 0.5),
    ("CCCCCOP(=O)(CCN(CCCN)CCCN)OCCCCCCCCCCCCOP(=O)(CCN(CCCN)CCCN)OCCCCC.Cl.Cl.Cl.Cl.Cl.Cl (centres undefined)", 0.5),
    ("CCCCC/C=C\\CCOP(=O)(CCN(CCCN)CCCN)OCCCCCOP(=O)(CCN(CCCN)CCCN)OCC/C=C\\CCCCC.Cl.Cl.Cl.Cl.Cl.Cl (centres undefined)", 1),
    ("CCCC/C=C\\CCOP(=O)(CCN(CCCN)CCCN)OCCCCCOP(=O)(CCN(CCCN)CCCN)OCC/C=C\\CCCC.Cl.Cl.Cl.Cl.Cl.Cl (centres undefined)", 0.5),
    ("CCCCCCCCOP(=O)(CCN(CCCN)CCCN)OCCCCOP(=O)(CCN(CCCN)CCCN)OCCCCCCCC.Cl.Cl.Cl.Cl.Cl.Cl (centres undefined)", 1),
    ("CCCCC/C=C\\CCCOP(=O)(CCN(CCCN)CCCN)OCCCOP(=O)(CCN(CCCN)CCCN)OCCC/C=C\\CCCCC.Cl.Cl.Cl.Cl.Cl.Cl (centres undefined)", 1),
]

Every entry's value here was drawn from ChEMBL document CHEMBL5120927.
